Parameter: IC50. Scope: all listed entries.
experimental system: c-Met (baculovirus expressed human c-Met kinase domain P948-S1343) (Homo sapiens)
Construct: human c-Met kinase domain P948-S1343; host or cells: baculovirus expression
Sequence (P08581 1011-1343 limits assumed): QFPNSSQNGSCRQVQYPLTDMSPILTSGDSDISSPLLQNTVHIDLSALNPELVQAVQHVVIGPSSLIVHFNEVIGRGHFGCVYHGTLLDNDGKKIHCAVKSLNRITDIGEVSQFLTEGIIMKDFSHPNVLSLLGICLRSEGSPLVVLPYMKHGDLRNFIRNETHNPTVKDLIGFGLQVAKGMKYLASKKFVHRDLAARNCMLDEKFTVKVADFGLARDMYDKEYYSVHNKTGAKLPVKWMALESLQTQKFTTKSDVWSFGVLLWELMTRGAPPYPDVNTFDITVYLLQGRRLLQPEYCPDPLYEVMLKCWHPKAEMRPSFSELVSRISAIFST
experiment: c-Met Luciferase-Coupled Chemiluminescent Kinase assay (LCCA);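 further: kinase activity read as percent ATP left after reaction, by luciferase-luciferin chemiluminescence, with 1 µM ATP and 1 µM poly-EY substrate, 2 h at ambient temperature, 10-point dose-response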
Assay type: biochemical

Worked set:
- molecule: "COc1cc2c(Oc3ccc(NC(=O)C4(C(=O)Nc5ccc(F)cc5)CC4)cc3F)ccnc2cc1OCC1CCN(C)CC1 [Example 334]"
  IC50: "< 50 nM"
- molecule: "COc1cc2c(Oc3ccc(NC(=O)[C@]4(C(=O)Nc5ccc(F)cc5)C[C@@H]4C)cc3F)ccnc2cc1OCCCN1CCN(C)CC1 [Example 354]"
  IC50: "< 50 nM"

Ask: Can you share its IC50? I mean this molecule: COc1cc2c(Oc3ccc(NC(=O)C4(C(=O)Nc5ccc(F)cc5)CC4)cc3F)ccnc2cc1OCCCN1CCN(C(C)C)CC1 [Example 357]
Result: < 50 nM
